test: in vivo; settings: rat, po, 1 mg/kg
metricName: bioavailability (%)

Which value of bioavailability has been reported for CC(C)CN1[C@H](c2ccc(/C=C/C(=O)O)cc2)c2ccc(O)cc2C[C@H]1C in the records?
86

Which value of bioavailability has been reported for CC(C)CN1[C@H](C)Cc2cc(O)ccc2[C@@]1(C)c1ccc(/C=C/C(=O)O)cc1 in the records?
33

Which value of bioavailability has been reported for CC(C)CN1[C@H](c2ccc(/C=C/C(=O)O)cc2)c2ccc(O)cc2CC1(C)C in the records?
66

(a) COC[C@H](C)CN1[C@H](c2ccc(/C=C/C(=O)O)cc2)c2ccc(O)cc2C[C@H]1C
(b) CC(C)CN1CCc2cc(O)ccc2[C@H]1c1ccc(/C=C/C(=O)O)cc1
Pick one: a or b . Which has the bigger bioavailability number? Answer = label.
b
(b: 26%, a: 3%)

====

assay: Half life in rat at 1 mg/kg, po; assay type: ADME, organism-based; details: in vivo
metricName: half-life (h)

Which value of half-life has been reported for CC(C)CN1CCc2cc(O)ccc2[C@H]1c1ccc(/C=C/C(=O)O)cc1 in the records?
3

Which value of half-life has been reported for CC(C)CN1[C@H](C)Cc2cc(O)ccc2[C@@]1(C)c1ccc(/C=C/C(=O)O)cc1 in the records?
5.6

(1) C[C@@H]1Cc2cc(O)ccc2[C@@H](c2ccc(/C=C/C(=O)O)cc2)N1c1ccc(OC(F)(F)F)cc1
(2) CC(C)CN1[C@H](c2ccc(/C=C/C(=O)O)cc2)c2ccc(O)cc2C[C@H]1C
Returns the identifier with the smallest measured half-life among 1 and 2 . Answer = label.
2

(P) CC(C)CN1[C@H](c2ccc(/C=C/C(=O)O)cc2)c2ccc(O)cc2CC1(C)C
(Q) COC[C@H](C)CN1[C@H](c2ccc(/C=C/C(=O)O)cc2)c2ccc(O)cc2C[C@H]1C
Pick one: P or Q . Which has the bigger half-life number? Answer = label.
P

====

assay: Intrinsic clearance in human hepatocytes assessed per 10^6 cells; assay type: ADME, cell-based, Hepatocyte; conditions: read-out: CLH
metricName: hepatocyte CLint (µL/min/1e6 cells)

Solved cases (5 shown):
Which value of hepatocyte CLint has been reported for C[C@H](CF)CN1[C@H](c2c(F)cc(/C=C/C(=O)O)cc2F)c2ccc(O)cc2C[C@H]1C in the records?
170

Which value of hepatocyte CLint has been reported for CC(C)CN1[C@H](c2ccc(/C=C/C(=O)O)cc2)c2ccc(O)cc2CC1(C)C in the records?
6

Which value of hepatocyte CLint has been reported for COC[C@H](C)CN1[C@H](c2c(F)cc(/C=C/C(=O)O)cc2F)c2ccc(O)cc2CC1(C)C in the records?
88

Which value of hepatocyte CLint has been reported for C[C@H](CF)CN1[C@H](c2ccc(/C=C/C(=O)O)cc2)c2ccc(O)cc2C[C@H]1C in the records?
100

Which value of hepatocyte CLint has been reported for CC(C)CN1[C@H](C)Cc2cc(O)ccc2[C@@]1(C)c1ccc(/C=C/C(=O)O)cc1 in the records?
18

(1) C[C@H](CF)CN1[C@H](c2ccc(/C=C/C(=O)O)cc2)c2ccc(O)cc2CC1(C)C
(2) CC(C)CN1[C@H](c2c(F)cc(/C=C/C(=O)O)cc2F)c2ccc(O)cc2CC1(C)C
(3) C[C@@H]1Cc2cc(O)ccc2[C@@H](c2c(F)cc(/C=C/C(=O)O)cc2F)N1CC(C)(C)F
(4) Cc1c(O)ccc2c1CCN(CC(C)C)[C@@H]2c1ccc(/C=C/C(=O)O)cc1
# ascending order, key=hepatocyte CLint Would you mind listing the labels in the order requested?
4, 1, 2, 3

(1) CC(C)CN1[C@H](c2ccc(/C=C/C(=O)O)cc2)c2ccc(O)cc2C[C@H]1C
(2) Cc1cc2c(cc1O)CCN(CC(C)C)[C@@H]2c1ccc(/C=C/C(=O)O)cc1
Pick one: 1 or 2 . Which has the bigger hepatocyte CLint number? Answer = label.
1
(1: 33 µL/min/1e6 cells, 2: 17 µL/min/1e6 cells)

(A) COC[C@H](C)CN1[C@H](c2c(F)cc(/C=C/C(=O)O)cc2F)c2ccc(O)cc2C[C@H]1C
(B) CC(C)CN1CCc2cc(O)ccc2[C@@H]1c1ccc(/C=C/C(=O)O)cc1
(C) C[C@@H]1Cc2cc(O)ccc2[C@@H](c2ccc(/C=C/C(=O)O)cc2)N1c1ccc(OC(F)(F)F)cc1
# ascending order, key=hepatocyte CLint Would you mind listing the labels in the order requested?
B, C, A
(B: 4 µL/min/1e6 cells, C: 9 µL/min/1e6 cells, A: 45 µL/min/1e6 cells)

(a) CC(C)CN1CCc2cc(O)ccc2[C@H]1c1ccc(/C=C/C(=O)O)cc1
(b) COc1ccc2c(c1)C[C@@H](C)N(CC(C)C)[C@@H]2c1ccc(/C=C/C(=O)O)cc1
Returns the identifier with the smallest measured hepatocyte CLint among a and b . Answer = label.
a

(1) COC[C@H](C)CN1[C@H](c2ccc(/C=C/C(=O)O)cc2)c2ccc(O)cc2C[C@H]1C
(2) C[C@H](CF)CN1[C@H](c2c(F)cc(/C=C/C(=O)O)cc2F)c2ccc(O)cc2CC1(C)C
Returns the identifier with the smallest measured hepatocyte CLint among 1 and 2 . Answer = label.
1
(1: 7 µL/min/1e6 cells, 2: 39 µL/min/1e6 cells)
